- measured.on: human ether-à-go-go-related gene (hERG) potassium channel (human, UniProt Q12809)
- Sequence (Q12809 whole entry, looked up): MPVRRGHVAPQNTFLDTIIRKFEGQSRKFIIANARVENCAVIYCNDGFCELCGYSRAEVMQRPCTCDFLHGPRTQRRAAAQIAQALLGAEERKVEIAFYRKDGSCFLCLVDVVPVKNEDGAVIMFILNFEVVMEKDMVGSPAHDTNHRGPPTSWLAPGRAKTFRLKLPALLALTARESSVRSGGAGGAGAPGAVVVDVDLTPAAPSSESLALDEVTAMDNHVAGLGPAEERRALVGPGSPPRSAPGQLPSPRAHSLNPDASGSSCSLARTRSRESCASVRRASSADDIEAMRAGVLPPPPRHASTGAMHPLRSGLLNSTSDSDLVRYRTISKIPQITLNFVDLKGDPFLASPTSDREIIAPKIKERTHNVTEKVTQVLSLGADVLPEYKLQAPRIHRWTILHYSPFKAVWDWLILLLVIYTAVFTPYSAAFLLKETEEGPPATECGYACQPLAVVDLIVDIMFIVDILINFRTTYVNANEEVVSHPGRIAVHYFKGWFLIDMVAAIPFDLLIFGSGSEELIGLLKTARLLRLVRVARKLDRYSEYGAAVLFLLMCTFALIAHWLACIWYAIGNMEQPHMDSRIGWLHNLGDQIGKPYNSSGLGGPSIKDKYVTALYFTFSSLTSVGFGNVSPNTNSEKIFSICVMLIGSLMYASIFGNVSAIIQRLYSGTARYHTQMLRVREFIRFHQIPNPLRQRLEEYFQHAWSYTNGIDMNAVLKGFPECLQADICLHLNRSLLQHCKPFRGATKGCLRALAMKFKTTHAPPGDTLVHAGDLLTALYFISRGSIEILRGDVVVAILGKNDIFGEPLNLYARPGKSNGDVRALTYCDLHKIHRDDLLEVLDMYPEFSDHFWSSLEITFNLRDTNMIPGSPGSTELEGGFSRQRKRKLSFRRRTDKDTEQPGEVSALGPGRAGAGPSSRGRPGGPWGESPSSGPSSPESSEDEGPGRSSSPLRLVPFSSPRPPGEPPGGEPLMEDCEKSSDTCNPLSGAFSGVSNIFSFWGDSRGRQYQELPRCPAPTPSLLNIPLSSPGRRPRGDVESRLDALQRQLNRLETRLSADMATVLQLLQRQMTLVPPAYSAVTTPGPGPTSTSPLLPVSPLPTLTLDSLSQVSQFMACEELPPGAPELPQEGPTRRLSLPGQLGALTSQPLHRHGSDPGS
- method: primary screen, population patch clamp on CHO cells stably expressing hERG; higher = less effect of the substance;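 note: peak tail current of the secondary pulse compared with the same well before compound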
The campaign covered roughly 310,000 compounds. About 14,000 (4.5%) showed an effect of 50% or more. The effect is printed as a negative number. Many of the other results were omitted from the sample, so strong results are more common in it than they were.
We use -20% as the dividing line for hERG current change (%, negative = inhibition) at 10uM: on or above the line is criterion met, below is criterion not met.

[[record]]
structure_as_smiles = "c1ccc(CSc2nnc(-c3ccccn3)n2-c2ccccc2)cc1"
assigned_label = "criterion met"

[[record]]
structure_as_smiles = "COc1cccc(-n2ccnc2SCC(=O)Nc2nccs2)c1"
assigned_label = "criterion met"

[[record]]
structure_as_smiles = "O=C(NCC1CCCCC1)c1ccc([N+](=O)[O-])cc1"
assigned_label = "criterion met"

[[record]]
structure_as_smiles = "CSc1sc(-c2n[nH]c(=S)n2C)c2c1C=CCC2"
assigned_label = "criterion not met"

[[record]]
structure_as_smiles = "N#Cc1cn(-c2ccccc2)nc1-c1ccccc1"
assigned_label = "criterion met"

[[record]]
structure_as_smiles = "CCOC(=O)CSc1nnc(CNC(=O)c2ccccc2OC)n1-c1ccc(OC)cc1"
assigned_label = "criterion not met"

[[record]]
structure_as_smiles = "N#Cc1ccc(CSc2nnc(-c3ccccn3)n2-c2ccccc2)cc1"
assigned_label = "criterion not met"

[[record]]
structure_as_smiles = "Cc1ccc(-n2c(SCc3ccc(C#N)cc3)nnc2-c2ccccn2)cc1"
assigned_label = "criterion not met"

[[record]]
structure_as_smiles = "COc1ccc(-n2c(CSc3nc(C)cc(C)n3)nnc2SCC(=O)Nc2nccs2)cc1"
assigned_label = "criterion met"

[[record]]
structure_as_smiles = "O=C1C=C(c2ccccc2)C[C@H](c2cccs2)[C@H]1n1cnc([N+](=O)[O-])c1"
assigned_label = "criterion met"

[[record]]
structure_as_smiles = "Cc1cccc(C(=O)NCCCNC(=O)c2cccc(C)c2)c1"
assigned_label = "criterion met"


All values here come from paper PMC4336329.
